The origin of these recorded values is ChEMBL document CHEMBL3885861.

# Species: Rattus norvegicus
# run_description: Open TG-GATES - Regimen: Daily Repeat
# Format: toxicity, organism-based, Sprague-Dawley
# Design: regimen Daily Repeat, gender Male, age 6 weeks
# condition_details: in vivo, po, 300 mg/kg, […], tissue Blood, route gavage, dose level Middle, time 28 day
# key: entry, value: Hb

[
  {
    "smiles_data": "CNC(=C[N+](=O)[O-])NCCSCc1ccc(CN(C)C)o1",
    "Hb [g/dL]": 15.3
  },
  {
    "smiles_data": "CCOc1ccc(NC(C)=O)cc1",
    "Hb [g/dL]": 14.4
  },
  {
    "smiles_data": "CN/C(=N/CCSCc1nc[nH]c1C)NC#N",
    "Hb [g/dL]": 14.6
  },
  {
    "smiles_data": "Cc1nnc2n1-c1ccc(Cl)cc1C(c1ccccc1Cl)=NC2",
    "Hb [g/dL]": 15.3
  },
  {
    "smiles_data": "COC(=O)C1=C(C)NC(C)=C(C(=O)OC)C1c1ccccc1[N+](=O)[O-]",
    "Hb [g/dL]": 13.5
  },
  {
    "smiles_data": "O=C(OC[C@H]1O[C@@H](OC(=O)c2cc(O)c(O)c(OC(=O)c3cc(O)c(O)c(O)c3)c2)[C@H](OC(=O)c2cc(O)c(O)c(OC(=O)c3cc(O)c(O)c(O)c3)c2)[C@@H](OC(=O)c2cc(O)c(O)c(OC(=O)c3cc(O)c(O)c(O)c3)c2)[C@@H]1OC(=O)c1cc(O)c(O)c(OC(=O)c2cc(O)c(O)c(O)c2)c1)c1cc(O)c(O)c(OC(=O)c2cc(O)c(O)c(O)c2)c1",
    "Hb [g/dL]": 15
  }
]

* * *

# key: entry, value: TERMINAL_BW
# Organism: Rattus norvegicus
# run_description: Open TG-GATES - Regimen: Single
# Type: toxicity, organism-based, Sprague-Dawley
# Set-up: regimen Single, gender Male, age 6 weeks
# condition_details: in vivo, po, 0 mg/kg, 3 h, route gavage, dose level Control

[
  {
    "molecule": "CN(C)CCC(c1ccc(Cl)cc1)c1ccccn1 (stereo not drawn)",
    "TERMINAL_BW (g)": 198.4
  },
  {
    "molecule": "CCCc1cc(=O)[nH]c(=S)[nH]1",
    "TERMINAL_BW (g)": 182.7
  },
  {
    "molecule": "CC(C)NNC(=O)c1ccncc1",
    "TERMINAL_BW (g)": 208.3
  },
  {
    "molecule": "CCOc1ccc(NC(C)=O)cc1",
    "TERMINAL_BW (g)": 210.2
  },
  {
    "molecule": "CNC(=C[N+](=O)[O-])NCCSCc1ccc(CN(C)C)o1",
    "TERMINAL_BW (g)": 216.9
  },
  {
    "molecule": "Nc1c2c(nc3ccccc13)CCCC2",
    "TERMINAL_BW (g)": 206.5
  },
  {
    "molecule": "Cc1nnc2n1-c1ccc(Cl)cc1C(c1ccccc1Cl)=NC2",
    "TERMINAL_BW (g)": 194.1
  },
  {
    "molecule": "NC1=NC(=O)C(c2ccccc2)O1 (stereo not drawn)",
    "TERMINAL_BW (g)": 210.7
  },
  {
    "molecule": "Brc1ccccc1",
    "TERMINAL_BW (g)": 190.9
  },
  {
    "molecule": "COC(=O)C1=C(C)NC(C)=C(C(=O)OC)C1c1ccccc1[N+](=O)[O-]",
    "TERMINAL_BW (g)": 197.5
  },
  {
    "molecule": "O=C(OC[C@H]1O[C@@H](OC(=O)c2cc(O)c(O)c(OC(=O)c3cc(O)c(O)c(O)c3)c2)[C@H](OC(=O)c2cc(O)c(O)c(OC(=O)c3cc(O)c(O)c(O)c3)c2)[C@@H](OC(=O)c2cc(O)c(O)c(OC(=O)c3cc(O)c(O)c(O)c3)c2)[C@@H]1OC(=O)c1cc(O)c(O)c(OC(=O)c2cc(O)c(O)c(O)c2)c1)c1cc(O)c(O)c(OC(=O)c2cc(O)c(O)c(O)c2)c1",
    "TERMINAL_BW (g)": 189.9
  },
  {
    "molecule": "CN/C(=N/CCSCc1nc[nH]c1C)NC#N",
    "TERMINAL_BW (g)": 213.9
  },
  {
    "molecule": "CN1C(=O)CCS(=O)(=O)C1c1ccc(Cl)cc1 (stereo not drawn)",
    "TERMINAL_BW (g)": 226.1
  }
]
